# Measurement description: HUVEC growth inhibition – cell-based, human, primary screen (AID 575);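 note: 100% = median of untreated cell wells with 0.1% DMSO on each plate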
# Measurement parameters: HUVEC proliferation, CellTiter-Glo luminescence, 72 h; at 10 µM; hits give low values
Active and inactive are the calls of the source.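 Rule for the calls: active = viability at or below 30% in both replicate assays; inconclusive = viability at or below 30% in just one of the two assays; inactive = the rest.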
Quantity: viability

Molecule: CCOC(=O)CSc1nc2cc(C(=O)NCc3ccco3)ccc2c(=O)n1C1CCCCC1
viability: 91.7% (inactive)
--
Molecule: O=C(NCCc1c[nH]c2ccccc12)c1ccc(S(=O)(=O)NCc2ccco2)cc1
viability: 60.2% (inactive)

Ask: Which viability is reported for this molecule? Cc1ccc(-c2[nH]nc3c2C(c2ccc(OC(=O)N4CCOCC4)cc2)C(C#N)=C(N)O3)cc1 (stereo unspecified)
Result: 106% (inactive)

Ask: Any idea what viability was measured for Cc1ccc(-c2nnn(CC(=O)N(CC3CCCO3)C(C(=O)NC(C)(C)C)c3ccc(F)cc3)n2)o1 (stereo unspecified) ?
Result: 100% (inactive)

Ask: Using the record for COc1ccc(CN(CCN(C)C)c2ccccn2)cc1 , report its viability.
Result: 97.4% (inactive)

Ask: Which viability reading was recorded for the molecule Nc1sccc1C(=O)c1ccccc1 ?
Result: 82.6% (inactive)

Ask: // lookup viability for COc1cc(OC)c(C(=O)Nc2ncn[nH]2)cc1OC
Result: 95.4% (inactive)
